# assayComment: Stability of hydrochloride salts of telavancin on storage (HPLC area % of pseudoaglycone and aglycone impurities)
# Type: physicochemical
# cond: before storage at 25° C.
endpoint: Aglycone of Cmpd 1 (HPLC area %) Initial

molecule	testResult
CCCCCCCCCCNCCN[C@@]1(C)C[C@H](O[C@H]2[C@H](Oc3c4cc5cc3Oc3ccc(cc3Cl)[C@@H](O)[C@@H](NC(=O)[C@@H](CC(C)C)NC)C(=O)N[C@@H](CC(N)=O)C(=O)N[C@H]5C(=O)N[C@H]3C(=O)N[C@H](C(=O)N[C@H](C(=O)O)c5cc(O)c(CNCP(=O)(O)O)c(O)c5-c5cc3ccc5O)[C@H](O)c3ccc(c(Cl)c3)O4)O[C@H](CO)[C@@H](O)[C@@H]2O)O[C@@H](C)[C@H]1O [5.74, telavancin]	0.43 HPLC area %
CCCCCCCCCCNCCN[C@@]1(C)C[C@H](O[C@H]2[C@H](Oc3c4cc5cc3Oc3ccc(cc3Cl)[C@@H](O)[C@@H](NC(=O)[C@@H](CC(C)C)NC)C(=O)N[C@@H](CC(N)=O)C(=O)N[C@H]5C(=O)N[C@H]3C(=O)N[C@H](C(=O)N[C@H](C(=O)O)c5cc(O)c(CNCP(=O)(O)O)c(O)c5-c5cc3ccc5O)[C@H](O)c3ccc(c(Cl)c3)O4)O[C@H](CO)[C@@H](O)[C@@H]2O)O[C@@H](C)[C@H]1O [4.69, telavancin]	0.07 HPLC area %
CCCCCCCCCCNCCN[C@@]1(C)C[C@H](O[C@H]2[C@H](Oc3c4cc5cc3Oc3ccc(cc3Cl)[C@@H](O)[C@@H](NC(=O)[C@@H](CC(C)C)NC)C(=O)N[C@@H](CC(N)=O)C(=O)N[C@H]5C(=O)N[C@H]3C(=O)N[C@H](C(=O)N[C@H](C(=O)O)c5cc(O)c(CNCP(=O)(O)O)c(O)c5-c5cc3ccc5O)[C@H](O)c3ccc(c(Cl)c3)O4)O[C@H](CO)[C@@H](O)[C@@H]2O)O[C@@H](C)[C@H]1O [3.94, telavancin]	0.04 HPLC area %
CCCCCCCCCCNCCN[C@@]1(C)C[C@H](O[C@H]2[C@H](Oc3c4cc5cc3Oc3ccc(cc3Cl)[C@@H](O)[C@@H](NC(=O)[C@@H](CC(C)C)NC)C(=O)N[C@@H](CC(N)=O)C(=O)N[C@H]5C(=O)N[C@H]3C(=O)N[C@H](C(=O)N[C@H](C(=O)O)c5cc(O)c(CNCP(=O)(O)O)c(O)c5-c5cc3ccc5O)[C@H](O)c3ccc(c(Cl)c3)O4)O[C@H](CO)[C@@H](O)[C@@H]2O)O[C@@H](C)[C@H]1O [5.60, telavancin]	0.15 HPLC area %
CCCCCCCCCCNCCN[C@@]1(C)C[C@H](O[C@H]2[C@H](Oc3c4cc5cc3Oc3ccc(cc3Cl)[C@@H](O)[C@@H](NC(=O)[C@@H](CC(C)C)NC)C(=O)N[C@@H](CC(N)=O)C(=O)N[C@H]5C(=O)N[C@H]3C(=O)N[C@H](C(=O)N[C@H](C(=O)O)c5cc(O)c(CNCP(=O)(O)O)c(O)c5-c5cc3ccc5O)[C@H](O)c3ccc(c(Cl)c3)O4)O[C@H](CO)[C@@H](O)[C@@H]2O)O[C@@H](C)[C@H]1O [4.41, telavancin]	0.06 HPLC area %

====

# assayComment: Stability of hydrochloride salts of telavancin on storage (HPLC area % of pseudoaglycone and aglycone impurities)
# Assay type: physicochemical
# cond: stored at 25° C.; difference between 2-week and initial value
Listing of recorded Aglycone of Cmpd 1 (HPLC area %) 2-Week Change by entry.
endpoint: Aglycone of Cmpd 1 (HPLC area %) 2-Week Change

molecule	testResult
CCCCCCCCCCNCCN[C@@]1(C)C[C@H](O[C@H]2[C@H](Oc3c4cc5cc3Oc3ccc(cc3Cl)[C@@H](O)[C@@H](NC(=O)[C@@H](CC(C)C)NC)C(=O)N[C@@H](CC(N)=O)C(=O)N[C@H]5C(=O)N[C@H]3C(=O)N[C@H](C(=O)N[C@H](C(=O)O)c5cc(O)c(CNCP(=O)(O)O)c(O)c5-c5cc3ccc5O)[C@H](O)c3ccc(c(Cl)c3)O4)O[C@H](CO)[C@@H](O)[C@@H]2O)O[C@@H](C)[C@H]1O [3.68, telavancin]	+0.02 HPLC area %
CCCCCCCCCCNCCN[C@@]1(C)C[C@H](O[C@H]2[C@H](Oc3c4cc5cc3Oc3ccc(cc3Cl)[C@@H](O)[C@@H](NC(=O)[C@@H](CC(C)C)NC)C(=O)N[C@@H](CC(N)=O)C(=O)N[C@H]5C(=O)N[C@H]3C(=O)N[C@H](C(=O)N[C@H](C(=O)O)c5cc(O)c(CNCP(=O)(O)O)c(O)c5-c5cc3ccc5O)[C@H](O)c3ccc(c(Cl)c3)O4)O[C@H](CO)[C@@H](O)[C@@H]2O)O[C@@H](C)[C@H]1O [3.94, telavancin]	+0.05 HPLC area %

====

Quick list: Aglycone of Cmpd 1 (HPLC area %) 2 Week per entry.
# assayComment: Stability of hydrochloride salts of telavancin on storage (HPLC area % of pseudoaglycone and aglycone impurities)
# Format: physicochemical
# cond: stored at 25° C. for 2 weeks, glass vials

molecule	measurementUnits	Aglycone of Cmpd 1 (HPLC area %) 2 Week
CCCCCCCCCCNCCN[C@@]1(C)C[C@H](O[C@H]2[C@H](Oc3c4cc5cc3Oc3ccc(cc3Cl)[C@@H](O)[C@@H](NC(=O)[C@@H](CC(C)C)NC)C(=O)N[C@@H](CC(N)=O)C(=O)N[C@H]5C(=O)N[C@H]3C(=O)N[C@H](C(=O)N[C@H](C(=O)O)c5cc(O)c(CNCP(=O)(O)O)c(O)c5-c5cc3ccc5O)[C@H](O)c3ccc(c(Cl)c3)O4)O[C@H](CO)[C@@H](O)[C@@H]2O)O[C@@H](C)[C@H]1O [3.94, telavancin]	HPLC area %	0.09
CCCCCCCCCCNCCN[C@@]1(C)C[C@H](O[C@H]2[C@H](Oc3c4cc5cc3Oc3ccc(cc3Cl)[C@@H](O)[C@@H](NC(=O)[C@@H](CC(C)C)NC)C(=O)N[C@@H](CC(N)=O)C(=O)N[C@H]5C(=O)N[C@H]3C(=O)N[C@H](C(=O)N[C@H](C(=O)O)c5cc(O)c(CNCP(=O)(O)O)c(O)c5-c5cc3ccc5O)[C@H](O)c3ccc(c(Cl)c3)O4)O[C@H](CO)[C@@H](O)[C@@H]2O)O[C@@H](C)[C@H]1O [4.69, telavancin]	HPLC area %	0.13
CCCCCCCCCCNCCN[C@@]1(C)C[C@H](O[C@H]2[C@H](Oc3c4cc5cc3Oc3ccc(cc3Cl)[C@@H](O)[C@@H](NC(=O)[C@@H](CC(C)C)NC)C(=O)N[C@@H](CC(N)=O)C(=O)N[C@H]5C(=O)N[C@H]3C(=O)N[C@H](C(=O)N[C@H](C(=O)O)c5cc(O)c(CNCP(=O)(O)O)c(O)c5-c5cc3ccc5O)[C@H](O)c3ccc(c(Cl)c3)O4)O[C@H](CO)[C@@H](O)[C@@H]2O)O[C@@H](C)[C@H]1O [5.74, telavancin]	HPLC area %	1.08

====

# assayComment: Stability of hydrochloride salts of telavancin on storage (HPLC area % of pseudoaglycone and aglycone impurities)
# Assay type: physicochemical
# cond: stored at 25° C.; difference between 2-week and initial value
endpoint: Aglycone of Cmpd 1 (HPLC area %) 2-Week Change

compound	testResult
CCCCCCCCCCNCCN[C@@]1(C)C[C@H](O[C@H]2[C@H](Oc3c4cc5cc3Oc3ccc(cc3Cl)[C@@H](O)[C@@H](NC(=O)[C@@H](CC(C)C)NC)C(=O)N[C@@H](CC(N)=O)C(=O)N[C@H]5C(=O)N[C@H]3C(=O)N[C@H](C(=O)N[C@H](C(=O)O)c5cc(O)c(CNCP(=O)(O)O)c(O)c5-c5cc3ccc5O)[C@H](O)c3ccc(c(Cl)c3)O4)O[C@H](CO)[C@@H](O)[C@@H]2O)O[C@@H](C)[C@H]1O [4.59, telavancin]	+0.07 HPLC area %
CCCCCCCCCCNCCN[C@@]1(C)C[C@H](O[C@H]2[C@H](Oc3c4cc5cc3Oc3ccc(cc3Cl)[C@@H](O)[C@@H](NC(=O)[C@@H](CC(C)C)NC)C(=O)N[C@@H](CC(N)=O)C(=O)N[C@H]5C(=O)N[C@H]3C(=O)N[C@H](C(=O)N[C@H](C(=O)O)c5cc(O)c(CNCP(=O)(O)O)c(O)c5-c5cc3ccc5O)[C@H](O)c3ccc(c(Cl)c3)O4)O[C@H](CO)[C@@H](O)[C@@H]2O)O[C@@H](C)[C@H]1O [2.42, telavancin]	+0.02 HPLC area %
CCCCCCCCCCNCCN[C@@]1(C)C[C@H](O[C@H]2[C@H](Oc3c4cc5cc3Oc3ccc(cc3Cl)[C@@H](O)[C@@H](NC(=O)[C@@H](CC(C)C)NC)C(=O)N[C@@H](CC(N)=O)C(=O)N[C@H]5C(=O)N[C@H]3C(=O)N[C@H](C(=O)N[C@H](C(=O)O)c5cc(O)c(CNCP(=O)(O)O)c(O)c5-c5cc3ccc5O)[C@H](O)c3ccc(c(Cl)c3)O4)O[C@H](CO)[C@@H](O)[C@@H]2O)O[C@@H](C)[C@H]1O [4.69, telavancin]	+0.06 HPLC area %
